Reported Geo Mean Fluorescence values follow for various binders
# experimental_target: T1, human TrkA receptor on the cell surface (human, UniProt P04629 33-796)
# T1 construct: whole, on cells; PC12-hTrkA: high density; also called hTrkA; huTrkA
# T1 sequence (P04629 33-796): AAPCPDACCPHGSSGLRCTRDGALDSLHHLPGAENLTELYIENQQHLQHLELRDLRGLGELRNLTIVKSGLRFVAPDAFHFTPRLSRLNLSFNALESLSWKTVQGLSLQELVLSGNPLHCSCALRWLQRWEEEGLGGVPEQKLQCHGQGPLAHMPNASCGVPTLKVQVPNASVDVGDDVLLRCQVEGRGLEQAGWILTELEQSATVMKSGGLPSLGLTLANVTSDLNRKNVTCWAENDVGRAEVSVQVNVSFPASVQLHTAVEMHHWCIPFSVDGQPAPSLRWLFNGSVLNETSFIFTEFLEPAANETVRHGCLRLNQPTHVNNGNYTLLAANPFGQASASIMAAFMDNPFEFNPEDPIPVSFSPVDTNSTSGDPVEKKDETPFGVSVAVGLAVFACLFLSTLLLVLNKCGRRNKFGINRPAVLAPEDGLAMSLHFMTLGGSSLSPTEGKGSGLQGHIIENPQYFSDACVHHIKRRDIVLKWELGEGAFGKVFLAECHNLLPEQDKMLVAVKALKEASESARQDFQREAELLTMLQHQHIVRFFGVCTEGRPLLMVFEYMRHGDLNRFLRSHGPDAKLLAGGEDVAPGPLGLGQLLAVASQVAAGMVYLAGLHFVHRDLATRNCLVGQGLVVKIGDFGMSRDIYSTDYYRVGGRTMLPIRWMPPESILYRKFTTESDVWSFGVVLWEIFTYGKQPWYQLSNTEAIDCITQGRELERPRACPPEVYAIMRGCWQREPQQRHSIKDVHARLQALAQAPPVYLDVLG
# experiment_notes: flow cytometry on TF-1 cells, 4 µg/ml
# Set-up: reference not given here
Kindly provide the number alone.

In the examples that follow, each entry is paired with its recorded Geo Mean Fluorescence.
{"binder": "BXhVH1VL3 (antibody, human IgG1, V domains shown, Human IgG1 constant regions (IgG1 expression vectors); COS-7 supernatant; also called hVH1/hVL3) VH: EVKLLESGGGLVQPGGSLRLSCAASGFTFSTYTMSWVRQTPGKGLEWVAYISKGGGSTYYPDTVKGRFTISRDNSKNTLYLQMNSLRAEDTAVYYCAKGAMYGNDFFYPMDYWGQGTTVTVSS VL: QIVLTQSPATLSLSPGERATLSCSASSSVSYMHWYQQKPGQSPRLLIYTTSNLASGIPSRFSGSGSGTFYTLTISSLEPEDFAVYYCHQWSSYPWTFGGGTKLEIK", "numeric_value": 6.1}
{"binder": "ChimMNAC13 (antibody, V domains shown, Corresponds to muMNACEP but has human constant regions instead of mouse constant regions; also called chimNINAC13; mVHEP/mVLEP) VH: EVKLMESGGGLVQPGGSLKLSCAASGFTFSTYTMSWARQTPEKRLEWVAYISKGGGSTYYPDTVKGRFTISRDNAKNTLYLQMSSLKSEDTALYYCARGAMYGNDFFYPMDYWGQQTSVTVSS VL: DIVLSQSPAIMSASLGEEITLTCSASSSVSYMHWYQQKSGTSPKLLITTTSNLASGVPSRFSGSGSGTFYSLTISSVEAEDAADYYCHQWSSYPWTFGGGTKLEIK", "numeric_value": 11}
{"binder": "BXhVH2VL3 (antibody, human IgG1, V domains shown, Human IgG1 constant regions (IgG1 expression vectors); COS-7 supernatant; also called hVH2/hVL3) VH: EVQLLESGGGLVQPGGSLRLSCAASGFTFSTYTMSWVRQTPGKRLEWVAYISKGGGSTYYPDTVKGRFTISRDNSKNTLYLQMNSLRAEDTAVYYCAKGAMYGNDFFYPMDYWGQGTTVTVSS VL: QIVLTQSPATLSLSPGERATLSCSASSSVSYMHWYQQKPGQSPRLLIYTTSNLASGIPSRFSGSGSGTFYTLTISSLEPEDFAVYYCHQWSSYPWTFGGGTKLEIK", "numeric_value": 10.8}
{"binder": "BXhVH1VL1 (antibody, human IgG1, V domains shown, Human IgG1 constant regions (IgG1 expression vectors); COS-7 supernatant; also called hVH1/hVL1) VH: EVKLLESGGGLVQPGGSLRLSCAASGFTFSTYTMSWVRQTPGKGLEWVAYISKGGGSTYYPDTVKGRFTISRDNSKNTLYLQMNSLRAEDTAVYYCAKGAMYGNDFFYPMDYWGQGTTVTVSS VL: EIVLTQSPATLSLSPGERATLSCSASSSVSYMHWYQQKPGQAPRLLIYTTSNLASGIPARFSGSGSGTDFTLTISSLEPEDFAVYYCHQWSSYPWTFGQGTKLEIK", "numeric_value": 5.7}

Let us examine a further case.
Prompt line: Given BXhVH2VL1 (antibody, human IgG1, V domains shown, Human IgG1 constant regions (IgG1 expression vectors); COS-7 supernatant; also called hVH2/hVL1) VH: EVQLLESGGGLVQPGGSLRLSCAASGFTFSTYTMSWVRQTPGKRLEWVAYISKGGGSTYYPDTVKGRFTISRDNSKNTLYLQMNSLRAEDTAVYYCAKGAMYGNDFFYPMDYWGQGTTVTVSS VL: EIVLTQSPATLSLSPGERATLSCSASSSVSYMHWYQQKPGQAPRLLIYTTSNLASGIPARFSGSGSGTDFTLTISSLEPEDFAVYYCHQWSSYPWTFGQGTKLEIK , respond with its Geo Mean Fluorescence.
Response line: 9.2
